Test system: DU-145 prostate
Assay: NCI tumour cell line growth inhibition, 48 h; in the data active means GI50 below about 0.43 µM; inactive means the rest
The reply should be one of these categories: True (active), False (inactive)

Field: example entries. Status: answers known.
Molecule	Class
O=C(Nc1ccc(-c2nc(N3CCOCC3)c3cccn3n2)cc1)Nc1cccnc1	True
COc1cc2cc(Oc3ccc(NC(=O)Nc4ccc(Cl)c(C(F)(F)F)c4)cc3)c(C)nc2cc1OCCN1CCOCC1	False
CCCCCCCCn1ccc2cc(NC(=O)Cn3cc(CN4CCCC4)nn3)ccc21	False
O=C(Nc1ccncc1)C(=O)c1cn(S(=O)(=O)c2cccc(F)c2)c2ccccc12	False
O=C1CCC(N2C(=O)c3ccccc3C2=O)C(=O)N1CO (stereo not drawn)	False

Query: recorded result category for `COc1ccc2c(c1)CCCN2c1c2ccccc2nc2ccccc12` in this test
True

Query: recorded result category for `O=C(CCc1nnc2sc(-c3ccc(Cl)cc3Cl)nn12)c1nc2ccccc2[nH]1` in this test
False

Query: recorded result category for `C[N+]1=C(/C=C/c2ccc(O)c3ncccc23)C(C)(C)c2ccccc21` in this test
False

Query: recorded result category for `Cc1ccc2c(c1)Sc1c(ccc3ccccc13)N2` in this test
False

====

System: NCI-H460 lung
Assay: NCI tumour cell line growth inhibition, 48 h
Parameter Measured: TGI

Worked cases, TGI given:
Molecule	TGI
CC/C=C\C[C@H](F)C/C=C1/C(=O)C=C[C@@H]1C/C=C\CCCC(=O)O	30.9 µM
Cc1nc(-c2cc3c(ccc4ccccc43)oc2=O)cs1	> 100 µM
CCCCC(=O)c1ccc2ccccc2c1O	> 100 µM
COc1ccccc1NC(=S)Nc1cc(C)cc(C)n1	> 100 µM

I have this molecule here, `CCC/C=C/c1cc2c(cc1O)CC[C@@H]1[C@@H]2CC[C@]2(C)[C@@H](O)CC[C@@H]12` , and I need its recorded TGI.
33 µM

I have this molecule here, COC(=O)C1=C(O)C(C(=O)OC)[C@]2(O)[C@H](C(=O)OC)[C@H]1C[C@@H](c1ccc(OC)c(OC)c1)[C@H]2C(=O)OC (stereo partly drawn) , and I need its recorded TGI.
42.1 µM

I have this molecule here, CC(C)(C)C(=O)OCOP(=O)(OCOC(=O)C(C)(C)C)OCC1OC(n2ccc(=O)[nH]c2=O)C(N=[N+]=[N-])C1O (stereo not drawn) , and I need its recorded TGI.
12.1 µM

I have this molecule here, `NC(=O)COC(=O)c1c(Cl)nc2sccn12` , and I need its recorded TGI.
> 100 µM

I have this molecule here, O=C(CC1(O)C(=O)Nc2c(Cl)ccc(Cl)c21)c1ccc(F)cc1 (stereo not drawn) , and I need its recorded TGI.
> 100 µM

====

System: TK-10 renal
Assay: NCI tumour cell line growth inhibition, 48 h
TGI for assorted compounds

Worked cases, TGI given:
Compound	TGI
O=C1N[C@H]2c3c(Cl)sc(Cl)c3[C@@H](O)[C@H]2O1	> 100 µM
CC(C)(CO)N1CCN(C(=S)Nc2ccccc2)CC1	> 100 µM
CCOC(=O)/C(C#N)=C/c1[nH]c(C(=O)OCc2ccccc2)c(C)c1C	> 100 µM

I have this compound here, `c1ccc(-c2nc3ccccc3n3c(CN4CCCCC4)nnc23)cc1` , and I need its recorded TGI.
> 100 µM

I have this compound here, CC1(C)OC2=C(CC1Br)C(=O)C(=O)c1ccccc12 (configuration not stated) , and I need its recorded TGI.
3.45 µM

I have this compound here, NC1=NC(c2ccccc2)CC(c2cc(Cl)ccc2O)=N1 (configuration not stated) , and I need its recorded TGI.
40.5 µM

I have this compound here, `Cc1cc2cc3c(cc2c(-c2ccc([N+](=O)[O-])cc2)n1)OCO3` , and I need its recorded TGI.
> 100 µM

====

Tested on: HOP-62 NSCLC
Assay: NCI tumour cell line growth inhibition, 48 h; in the data active = GI50 below about 0.43 µM; inactive = the rest
The reply should be one of these categories: True = active, False = inactive

Compound	Class
Cc1ccc(C(=O)N(CCCN)C(c2oc3cc(Cl)ccc3c(=O)c2Cc2ccccc2)C(C)C)cc1 (configuration not stated)	True
CCC[CH2][Sn]1([CH2]CCC)[O]C(=O)CN=Cc2c(ccc3ccccc23)[O]1	False
O=C(O)/C=C(\c1nc2ccc([N+](=O)[O-])cc2[nH]1)c1cc(Cl)ccc1O	False

# ---- query compound ----
Query: recorded result category for Cc1cc(-c2cnn3c(NCC4CC(C)(O)C4)cc(Oc4cccnc4)nc23)ccc1C(=O)NC1CC1 (configuration not stated) in this test
False

====

What follows is a record of GI50 for MDA-MB-435.

Worked cases, GI50 given:
Compound	GI50
COc1cc[nH]c1/C=C1\C(=O)Nc2ccc(F)c(C#CC3(O)CCNCC3)c21	74.5 nM
Nc1nc(N(Cc2ccccc2)c2ccccc2)c2cn[nH]c2n1	2630 nM

Hi! What's the reported GI50 for `COc1cc2cc(Oc3ccc(NC(=O)Nc4ccc(Cl)c(C(F)(F)F)c4)cc3)c(C)nc2cc1OCCN1CCOCC1` on MDA-MB-435?
1940 nM

Hi! What's the reported GI50 for `O=c1cc(-c2ccccc2)oc2cc(OC/C(=N/O)c3ccccc3)ccc12` on MDA-MB-435?
> 50000 nM

Hi! What's the reported GI50 for `CS(=O)(=O)CCNCc1ccc(-c2ccc3ncnc(Nc4ccc(OCc5ccccc5)cc4)c3c2)o1` on MDA-MB-435?
4940 nM

Hi! What's the reported GI50 for `Cc1ccc(-c2nc3nc(-c4ccccc4)nc(N4CCCNCC4)c3o2)cc1` on MDA-MB-435?
1930 nM

Hi! What's the reported GI50 for `O=C(CCc1nnc2sc(-c3ccc(Cl)cc3Cl)nn12)c1nc2ccccc2[nH]1` on MDA-MB-435?
382 nM

====

TGI for assorted molecules
System: A498 renal
Assay: NCI tumour cell line growth inhibition, 48 h

Worked cases, TGI given:
Molecule	TGI
O=C(Cn1c2c(c3ccccc31)CCCC2)N1CCCC1	> 100 µM
CC(=O)N(C(C)=O)n1c(Cc2ccc(Cl)cc2)n[nH]c1=O	> 100 µM
O=C(CC1(O)C(=O)Nc2ccccc21)c1ccncc1 (stereo unspecified)	> 100 µM
Nc1nc(Cl)c(CO)c(NCC2(CO)CC(CCc3ccccc3)C2)n1 (stereo unspecified)	> 100 µM

Attention now shifts to the item below.
I have this molecule here, CCN(CC)CCCC(C)Nc1c2ccc(Cl)cc2nc2ccc(O)cc12 (stereo unspecified) , and I need its recorded TGI.
18.2 µM

====

Tested on: NCI-H226 lung
Assay: NCI tumour cell line growth inhibition, 48 h
Parameter Measured: log10(TGI) (log10 of the value in µM)
Plainly stated, the numbers are log10 of TGI given in µM.

Worked cases, log10(TGI) given:
Molecule	Study Target	log10(TGI)
COc1ccc(-c2nc(-c3nc4ccc(Cl)cc4[nH]3)c3ccccn23)cc1	NCI-H226 lung	0.65
CCC/C=C/c1cc2c(cc1O)CC[C@@H]1[C@@H]2CC[C@]2(C)[C@@H](O)CC[C@@H]12	NCI-H226 lung	1.66
CCCn1c(=S)sc2c1nc(C)n1c(Nc3ccccc3)nnc21	NCI-H226 lung	1.37

Hi! What's the reported log10(TGI) for `O=C(O)C(=Cc1ccc(-c2ccccc2)cc1)C(=O)O` on NCI-H226 lung?
1.68

Hi! What's the reported log10(TGI) for `COc1cc(/C=N\N(C)C)cc(/C=N/N(C)C)c1O` on NCI-H226 lung?
1.70

Hi! What's the reported log10(TGI) for COC1(C)CP(=O)(OC(C)C)CC(C)=C1Cl (stereo unspecified) on NCI-H226 lung?
1.89

====

Tested on: HS 578T breast
Assay: NCI tumour cell line growth inhibition, 48 h
TGI for assorted compounds

Worked cases, TGI given:
Compound	Parameter Measured	Observed Value
Ic1ccc2c(c1)N(c1ccccc1)c1cc(N=c3ccc4nc5ccc(I)cc5n(-c5ccccc5)c-4c3)ccc1N2	TGI	> 100 µM
O=P1(O)c2ccccc2CCc2ccccc21	TGI	> 100 µM
CC[C@@]1(c2ccccc2)C2=C(CC(C)(C)CC2=O)Nc2[nH]ncc21	TGI	> 100 µM
N#Cc1c(=O)n(-c2ccccc2)c(O)c2c(N)n[nH]c12	TGI	> 100 µM
O=C(O)c1ccccc1/C=N/NC1=NCCN1	TGI	> 100 µM

I have this compound here, COC(=O)C1=C(O)C(C(=O)OC)[C@]2(O)[C@H](C(=O)OC)[C@H]1C[C@@H](c1ccc(OC)c(OC)c1)[C@H]2C(=O)OC (some centres undefined) , and I need its recorded TGI.
> 100 µM

I have this compound here, `CC(C)NC(NC(C)C)=C(S(=O)(=O)C(F)(F)C(F)(F)C(F)(F)C(F)(F)F)S(=O)(=O)C(F)(F)C(F)(F)C(F)(F)C(F)(F)F` , and I need its recorded TGI.
> 100 µM

I have this compound here, `O=C(O)c1nn(-c2ccccc2-c2n[nH]c(=O)[nH]c2=O)c(=O)[nH]c1=O` , and I need its recorded TGI.
> 100 µM

I have this compound here, `CO/C(N)=C(\C#N)N=Cc1ccco1` , and I need its recorded TGI.
> 100 µM

I have this compound here, `O=C(Nc1ccncc1)C(=O)c1cn(S(=O)(=O)c2cccc(F)c2)c2ccccc12` , and I need its recorded TGI.
> 100 µM

I have this compound here, `O=c1[nH]c(=O)n(CCOc2ccccc2)cc1Nc1ccccc1` , and I need its recorded TGI.
> 100 µM

I have this compound here, CCCCCCCC(=O)OCC/C=C/C1OC1C1OC(=O)/C=C\C=C\c2nc(oc2C)/C=C(/C)CCC2OC2C1OC(=O)NC(C)=O (centres undefined) , and I need its recorded TGI.
0.221 µM

I have this compound here, `CCCn1c(=S)sc2c1nc(C)n1c(Nc3ccccc3)nnc21` , and I need its recorded TGI.
36 µM

I have this compound here, `C=C1[C@H](OC(C)=O)[C@H]2[C@@H](OC(C)=O)[C@@H](C)C[C@]2(C)C(=O)[C@H](C)/C=C/C(C)(C)C(=O)[C@H](OCC(C)C)[C@H]1OC(C)=O` , and I need its recorded TGI.
> 25 µM

I have this compound here, c1nc(N2CC2)c2cnn(C3CCCCO3)c2n1 (centres undefined) , and I need its recorded TGI.
> 100 µM

I have this compound here, `COc1ccc2c(c1)-c1nc(=S)n(CCCN(C)C)c3ccc([N+](=O)[O-])c(c13)N2` , and I need its recorded TGI.
5.6 µM

I have this compound here, `C#CCNC(=O)c1cccc2c1cc(C)n2-c1nc2c(c(NCc3ccccc3)n1)CCCC2` , and I need its recorded TGI.
0.954 µM

I have this compound here, CCCC/C=C/C/C=C/CCCCCCCCC(=O)OCC1CCCN2CCCCC12 (centres undefined) , and I need its recorded TGI.
> 100 µM

I have this compound here, `CCCCCCCC[C@@H](O)CC(=O)N[C@@H](CC(N)=O)C(=O)N[C@@H](CCC(N)=O)C(=O)N[C@@H](CC(=O)c1cc(C)cc(O)c1C(=O)c1c(O)cccc1O)CC(C)C` , and I need its recorded TGI.
62 µM

I have this compound here, `COc1cc(/C=N\N(C)C)cc(/C=N/N(C)C)c1O` , and I need its recorded TGI.
20.9 µM

I have this compound here, `O=c1cc(N2CCNCC2)nc2ccccn12` , and I need its recorded TGI.
> 100 µM

I have this compound here, `CN(C)/N=C(/CC(O)(C(F)(F)F)C(F)(F)F)c1ccc([N+](=O)[O-])cc1` , and I need its recorded TGI.
> 100 µM

I have this compound here, `Cc1ccc(/C(Cl)=C/C=C(C#N)C#N)cc1` , and I need its recorded TGI.
5.58 µM
